Parameter MIC: see the listing below.
- Test system: Pseudomonas aeruginosa
- assay.explanation: Antibacterial activity against Pseudomonas aeruginosa ATCC 27853 after 18 hrs by agar dilution method
- Format: functional
- assay.conditions: ATCC 27853, 18 h
Bridge positions count the residues as written; N and C are the ends. Square brackets hold non-standard residues; d marks the D form. Peptide text beside a SMILES is read from it. * marks the point of attachment. Heptanoyl(6-Me) = CC(C)CCCCC(=O)*; Octanoyl(7-Me) = CC(C)CCCCCC(=O)*; X1 = CC[C@H](C)CCCCC(=O)*; Heptanoyl = CCCCCCC(=O)*; Octanoyl = CCCCCCCC(=O)*; Dab = NCC[C@H](N)C(=O)O; Nva = CCC[C@H](N)C(=O)O
Remember to put the unit after the number in your answer.

Some solved cases for reference:
[[record]]
compound = "CCC[C@@H]1NC(=O)[C@@H](CC(C)C)NC(=O)[C@H](CCN)NC(=O)[C@@H](NC(=O)[C@H](CCN)NC(=O)[C@@H](NC(=O)[C@H](CCN)NC(=O)CCCC[C@@H](C)CC)[C@@H](C)O)CCNC(=O)[C@H]([C@@H](C)O)NC(=O)[C@H](CCN)NC(=O)[C@H](CCN)NC1=O (X1-[Dab]T[Dab][Dab][Dab][dL][Nva][Dab][Dab]T; lactam 4-C)"
observed = "1 µg/mL"

[[record]]
compound = "CCCCCCC(=O)N[C@@H](CCN)C(=O)N[C@H](C(=O)N[C@@H](CCN)C(=O)N[C@H]1CCNC(=O)[C@H]([C@@H](C)O)NC(=O)[C@H](CCN)NC(=O)[C@H](CCN)NC(=O)[C@H](CC(C)C)NC(=O)[C@@H](Cc2ccccc2)NC(=O)[C@H](CCN)NC1=O)[C@@H](C)O [POLYMYXIN B4] (Heptanoyl-[Dab]T[Dab][Dab][Dab][dF]L[Dab][Dab]T; lactam 4-C)"
observed = "1 µg/mL"

[[record]]
compound = "CC(C)CCCCC(=O)N[C@@H](CCN)C(=O)N[C@H](C(=O)N[C@H](CO)C(=O)N[C@H]1CCNC(=O)[C@H]([C@@H](C)O)NC(=O)[C@H](CCN)NC(=O)[C@H](CCN)NC(=O)[C@H]([C@@H](C)O)NC(=O)[C@@H](CC(C)C)NC(=O)[C@H](CCN)NC1=O)[C@@H](C)O ({Heptanoyl(6-Me)}-[Dab]T[dS][Dab][Dab][dL]T[Dab][Dab]T; lactam 4-C)"
observed = "4 µg/mL"

[[record]]
compound = "CC(C)CCCCCC(=O)N[C@@H](CCN)C(=O)N[C@H](C(=O)N[C@@H](CCN)C(=O)N[C@H]1CCNC(=O)[C@H]([C@@H](C)O)NC(=O)[C@H](CCN)NC(=O)[C@H](CCN)NC(=O)[C@H](CC(C)C)NC(=O)[C@@H](CC(C)C)NC(=O)[C@H](CCN)NC1=O)[C@@H](C)O ({Octanoyl(7-Me)}-[Dab]T[Dab][Dab][Dab][dL]L[Dab][Dab]T; lactam 4-C)"
observed = "2 µg/mL"

[[record]]
compound = "CCCCCCCC(=O)N[C@@H](CCN)C(=O)N[C@H](C(=O)N[C@@H](CCN)C(=O)N[C@H]1CCNC(=O)[C@H]([C@@H](C)O)NC(=O)[C@H](CCN)NC(=O)[C@H](CCN)NC(=O)[C@H](CC(C)C)NC(=O)[C@@H](CC(C)C)NC(=O)[C@H](CCN)NC1=O)[C@@H](C)O (Octanoyl-[Dab]T[Dab][Dab][Dab][dL]L[Dab][Dab]T; lactam 4-C)"
observed = "1 µg/mL"


Query: Identify MIC associated with the compound CC(C)CCCCC(=O)N[C@@H](CCN)C(=O)N[C@H](C(=O)N[C@@H](CCN)C(=O)N[C@H]1CCNC(=O)[C@H]([C@@H](C)O)NC(=O)[C@H](CCN)NC(=O)[C@H](CCN)NC(=O)[C@H](CC(C)C)NC(=O)[C@@H](Cc2ccccc2)NC(=O)[C@H](CCN)NC1=O)[C@@H](C)O [POLYMYXIN B2] ({Heptanoyl(6-Me)}-[Dab]T[Dab][Dab][Dab][dF]L[Dab][Dab]T; lactam 4-C)
Response: 2 µg/mL
